Tested on: BL21-DE3
experimental-protocol: Inhibition of SARS coronavirus papain-like protease (amino acids 1541 to 1855) expressed in Escherichia coli BL21 (DE3) cells assessed as decrease in AMC release using Z-RLRGG-AMC as substrate by multimode plate reader analysis
conditions-used: Severe acute respiratory syndrome-related coronavirus
readout-type: Imax (%)
Answers are plain numbers, in %.

Worked examples follow.
CC(=O)Nc1ccc(CNC(=O)C2CCN([C@H](C)c3cccc4ccccc34)CC2)cc1	94
C[C@H](c1cccc2ccccc12)N1CCC(C(=O)NCc2cccc(F)c2)CC1	100
C[C@H](c1cccc2ccccc12)N1CCC(C(=O)NCc2ccc3c(c2)OCO3)CC1	99
CC(=O)Nc1cccc(CNC(=O)C2CCN([C@H](C)c3cccc4ccccc34)CC2)c1	100
C[C@H](c1cccc2ccccc12)N1CCC(C(=O)NCc2ccc(F)c(F)c2)CC1	78

Read the next record carefully.
Record summary for `COc1cc(CNC(=O)C2CCN([C@H](C)c3cccc4ccccc34)CC2)ccn1` : reported Imax = 100

###

system-under-test: Ubiquitin carboxyl-terminal hydrolase 20 (Homo sapiens, UniProt Q9Y2K6)
Sequence (Q9Y2K6 whole entry): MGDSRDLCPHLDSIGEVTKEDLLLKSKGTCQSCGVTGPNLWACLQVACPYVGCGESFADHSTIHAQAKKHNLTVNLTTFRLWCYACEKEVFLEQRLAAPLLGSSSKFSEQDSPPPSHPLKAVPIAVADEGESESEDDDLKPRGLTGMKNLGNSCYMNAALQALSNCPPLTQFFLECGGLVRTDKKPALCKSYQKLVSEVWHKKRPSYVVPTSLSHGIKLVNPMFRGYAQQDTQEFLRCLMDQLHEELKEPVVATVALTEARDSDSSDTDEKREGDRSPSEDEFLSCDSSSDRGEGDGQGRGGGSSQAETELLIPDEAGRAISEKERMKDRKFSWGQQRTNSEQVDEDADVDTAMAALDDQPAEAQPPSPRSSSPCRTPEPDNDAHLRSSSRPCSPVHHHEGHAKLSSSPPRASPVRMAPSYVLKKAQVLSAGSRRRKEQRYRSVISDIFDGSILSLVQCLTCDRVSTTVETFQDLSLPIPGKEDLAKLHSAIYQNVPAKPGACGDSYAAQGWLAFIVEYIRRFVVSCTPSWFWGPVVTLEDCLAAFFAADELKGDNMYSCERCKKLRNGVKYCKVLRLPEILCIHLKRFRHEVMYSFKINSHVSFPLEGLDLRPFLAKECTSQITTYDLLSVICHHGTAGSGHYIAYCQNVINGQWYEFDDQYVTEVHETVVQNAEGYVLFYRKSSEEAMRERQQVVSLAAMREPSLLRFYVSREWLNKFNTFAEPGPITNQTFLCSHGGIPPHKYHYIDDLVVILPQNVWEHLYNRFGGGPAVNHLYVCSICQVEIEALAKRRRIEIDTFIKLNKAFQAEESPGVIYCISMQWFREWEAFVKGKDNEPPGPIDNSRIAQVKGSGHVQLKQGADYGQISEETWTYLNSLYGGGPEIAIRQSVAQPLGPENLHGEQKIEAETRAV
experimental-protocol: Inhibition of human USP20 using Ub-rhodamine 110 as substrate at 31 uM
For each entry below, report its inhibition value.

Worked examples follow.
C[C@H](c1cccc2ccccc12)N1CCC(C(=O)NCc2cccc(F)c2)CC1	10%
CC(=O)Nc1cccc(CNC(=O)C2CCN([C@H](C)c3cccc4ccccc34)CC2)c1	10%
C[C@H](c1cccc2ccccc12)N1CCC(C(=O)NCc2ccc3c(c2)OCO3)CC1	< 10%

Read the next record carefully.
Record summary for `C[C@H](c1cccc2ccccc12)N1CCC(C(=O)NCc2ccc(F)cc2)CC1` : reported inhibition = 10%

###

Tested on: HEK293
experimental-protocol: Cytotoxicity against human HEK293 cells assessed as cell viability after 48 hrs by Cell Titer-Glo luminescent assay
Format: cell-based
conditions-used: hek293, 48 h
For each entry below, report its CC50 value.
Give bare numbers, in µM.

CC(=O)Nc1cccc(CNC(=O)C2CCN([C@H](C)c3cccc4ccccc34)CC2)c1	68
C[C@H](c1cccc2ccccc12)N1CCC(C(=O)NCc2cccc(F)c2)CC1	73

Read the next record carefully.
Record summary for `C[C@H](c1cccc2ccccc12)N1CCC(C(=O)NCc2ccc(F)cc2)CC1` : reported CC50 = 73

###

system-under-test: Ubiquitin carboxyl-terminal hydrolase 7 (Homo sapiens)
Sequence (Q93009 whole entry, looked up): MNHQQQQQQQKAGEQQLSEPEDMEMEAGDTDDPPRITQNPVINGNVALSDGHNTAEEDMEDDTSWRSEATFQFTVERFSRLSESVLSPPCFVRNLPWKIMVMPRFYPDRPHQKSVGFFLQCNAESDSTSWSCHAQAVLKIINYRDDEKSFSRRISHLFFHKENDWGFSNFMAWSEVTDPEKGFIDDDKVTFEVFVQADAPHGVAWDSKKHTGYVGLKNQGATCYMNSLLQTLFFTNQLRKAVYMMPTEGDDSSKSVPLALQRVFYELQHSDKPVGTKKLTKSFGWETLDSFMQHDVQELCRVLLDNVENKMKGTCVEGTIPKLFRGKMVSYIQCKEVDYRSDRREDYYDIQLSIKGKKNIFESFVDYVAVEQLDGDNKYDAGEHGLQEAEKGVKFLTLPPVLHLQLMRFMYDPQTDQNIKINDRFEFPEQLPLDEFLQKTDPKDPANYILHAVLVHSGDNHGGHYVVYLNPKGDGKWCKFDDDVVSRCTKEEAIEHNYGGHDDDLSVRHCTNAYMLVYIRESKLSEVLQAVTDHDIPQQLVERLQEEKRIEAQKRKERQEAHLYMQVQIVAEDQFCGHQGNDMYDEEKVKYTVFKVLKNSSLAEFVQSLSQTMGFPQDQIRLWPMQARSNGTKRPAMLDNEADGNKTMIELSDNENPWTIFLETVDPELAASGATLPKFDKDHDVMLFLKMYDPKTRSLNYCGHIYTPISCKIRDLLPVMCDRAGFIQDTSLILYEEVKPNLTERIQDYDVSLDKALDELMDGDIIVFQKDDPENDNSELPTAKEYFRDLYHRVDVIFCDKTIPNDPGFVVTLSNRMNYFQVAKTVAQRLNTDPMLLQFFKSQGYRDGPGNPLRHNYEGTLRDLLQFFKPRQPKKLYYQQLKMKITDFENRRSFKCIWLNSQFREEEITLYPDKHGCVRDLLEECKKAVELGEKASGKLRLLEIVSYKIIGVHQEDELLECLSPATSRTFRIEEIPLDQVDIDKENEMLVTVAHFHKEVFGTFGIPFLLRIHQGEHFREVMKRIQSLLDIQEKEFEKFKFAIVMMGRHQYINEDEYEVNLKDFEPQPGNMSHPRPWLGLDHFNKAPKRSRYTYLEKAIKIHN
experimental-protocol: Inhibition of human USP7 using Ub-rhodamine 110 as substrate at 31 uM
readout-type: inhibition

C[C@H](c1cccc2ccccc12)N1CCC(C(=O)NCc2cccc(F)c2)CC1	< 10%
C[C@H](c1cccc2ccccc12)N1CCC(C(=O)NCc2ccc(F)cc2)CC1	< 10%
CC(=O)Nc1cccc(CNC(=O)C2CCN([C@H](C)c3cccc4ccccc34)CC2)c1	10%

inhibition on Ubiquitin carboxyl-terminal hydrolase 7 (Homo sapiens) for `C[C@H](c1cccc2ccccc12)N1CCC(C(=O)NCc2ccc3c(c2)OCO3)CC1` is < 10%

###

System: Liver
experimental-protocol: Half life in mouse liver microsomes at 1 uM
Type: ADME
readout-type: t1/2 (min)
Numbers only, in min.

CC(=O)Nc1cccc(CNC(=O)C2CCN([C@H](C)c3cccc4ccccc34)CC2)c1	7
C[C@H](c1cccc2ccccc12)N1CCC(C(=O)NCc2ccc3c(c2)OCO3)CC1	1.6
COc1cc(CNC(=O)C2CCN([C@H](C)c3cccc4ccccc34)CC2)ccn1	8

Record summary for `C[C@H](c1cccc2ccccc12)N1CCC(C(=O)NCc2cccc(F)c2)CC1` : reported t1/2 = 2.8
